Provenance of the data: paper PMC8203924

System: bioluminescent E. coli
test_method_notes: Photo-assisted antimicrobial activity against bioluminescent bacteria
Format: cell-based, Escherichia coli
experimental_conditions: 680 nm LED 6 min, 12 J/cm^2, 33.33 mW/cm^2, after 10 min incubation, triplicate, mean ± SD, read-out: IC50 against E. coli upon illumination
Below, each entry is listed alongside its reported pIC50.
# pIC50 = -log10(concentration in molar units)

{"substance": "H-GGGKKKKKRWRWRW-OH [Compound 1, G3K5(RW)3]", "recorded_result": 4.23}

Then this substance:
Q: pIC50 of H-GGGRWRWRWKKKKK-OH [Compound 2, G3(RW)3K5] on bioluminescent E. coli?
Result: 3.89
